- Tested On: HA of influenza B virus ca B/Brisbane/60/2008 (victoria) (influenza B virus B/Brisbane/60/2008)
- Measurement Description: cell-based or functional assay
Can you tell me Neutralization (Ave IC50 ug/ml) for the items I'm about to list?
Give a bare numeral; the unit µg/mL is implied.

Summary for this binder, FBD-94 (antibody, V domains shown) VH: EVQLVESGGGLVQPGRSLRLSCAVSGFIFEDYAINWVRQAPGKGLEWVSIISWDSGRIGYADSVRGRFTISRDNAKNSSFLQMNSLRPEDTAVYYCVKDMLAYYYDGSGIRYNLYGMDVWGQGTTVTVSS VL: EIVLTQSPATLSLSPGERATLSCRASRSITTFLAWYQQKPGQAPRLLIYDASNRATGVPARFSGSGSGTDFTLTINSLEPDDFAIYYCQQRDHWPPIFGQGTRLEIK : Neutralization (Ave IC50 ug/ml) is 0.006

Summary for this binder, FBD-56 (antibody, V domains shown) VH: EVQLVESGGHLVQPGRSLRLSCAASGFTFEDYAMNWVRQAPGKGLEWVSVISWDSGRIGYADSVKGRFTISRDNAKNSSYLQMNSLRPEDTALYYCVRDMLAYYSDNSGKKYNVYGMDVWGQGTTVTVSS VL: EIVLTQSPATLSLSPGERATLSCRASQSVSTFLAWYQQKPGQAPRLLMYDASNRATGIPARFSGSGSGTDFTLTISSLEPEDFAIYYCQQRSHWPPIFGQGTRLEIK : Neutralization (Ave IC50 ug/ml) is 0.01

Summary for this binder, FBC-39 LTL (antibody, V domains shown) VH: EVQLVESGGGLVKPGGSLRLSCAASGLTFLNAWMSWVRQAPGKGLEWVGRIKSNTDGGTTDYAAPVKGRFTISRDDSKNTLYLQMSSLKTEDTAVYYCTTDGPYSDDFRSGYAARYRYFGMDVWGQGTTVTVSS VL: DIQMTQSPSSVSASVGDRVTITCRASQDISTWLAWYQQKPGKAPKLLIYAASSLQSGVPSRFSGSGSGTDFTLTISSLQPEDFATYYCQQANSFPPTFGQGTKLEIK : Neutralization (Ave IC50 ug/ml) is 0.151

Summary for this binder, FBC-39 FTL (antibody, V domains shown) VH: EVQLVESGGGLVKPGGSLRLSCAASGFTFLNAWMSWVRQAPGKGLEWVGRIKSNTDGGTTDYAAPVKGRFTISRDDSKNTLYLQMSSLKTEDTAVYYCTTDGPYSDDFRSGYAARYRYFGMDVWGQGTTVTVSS VL: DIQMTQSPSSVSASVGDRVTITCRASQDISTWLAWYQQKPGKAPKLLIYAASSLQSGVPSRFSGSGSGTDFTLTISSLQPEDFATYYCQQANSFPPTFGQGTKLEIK : Neutralization (Ave IC50 ug/ml) is 0.098
